- target: T1, human calcium-sensing receptor (CaSR) (human, UniProt P41180 20-1078)
- T1 sequence (looked up): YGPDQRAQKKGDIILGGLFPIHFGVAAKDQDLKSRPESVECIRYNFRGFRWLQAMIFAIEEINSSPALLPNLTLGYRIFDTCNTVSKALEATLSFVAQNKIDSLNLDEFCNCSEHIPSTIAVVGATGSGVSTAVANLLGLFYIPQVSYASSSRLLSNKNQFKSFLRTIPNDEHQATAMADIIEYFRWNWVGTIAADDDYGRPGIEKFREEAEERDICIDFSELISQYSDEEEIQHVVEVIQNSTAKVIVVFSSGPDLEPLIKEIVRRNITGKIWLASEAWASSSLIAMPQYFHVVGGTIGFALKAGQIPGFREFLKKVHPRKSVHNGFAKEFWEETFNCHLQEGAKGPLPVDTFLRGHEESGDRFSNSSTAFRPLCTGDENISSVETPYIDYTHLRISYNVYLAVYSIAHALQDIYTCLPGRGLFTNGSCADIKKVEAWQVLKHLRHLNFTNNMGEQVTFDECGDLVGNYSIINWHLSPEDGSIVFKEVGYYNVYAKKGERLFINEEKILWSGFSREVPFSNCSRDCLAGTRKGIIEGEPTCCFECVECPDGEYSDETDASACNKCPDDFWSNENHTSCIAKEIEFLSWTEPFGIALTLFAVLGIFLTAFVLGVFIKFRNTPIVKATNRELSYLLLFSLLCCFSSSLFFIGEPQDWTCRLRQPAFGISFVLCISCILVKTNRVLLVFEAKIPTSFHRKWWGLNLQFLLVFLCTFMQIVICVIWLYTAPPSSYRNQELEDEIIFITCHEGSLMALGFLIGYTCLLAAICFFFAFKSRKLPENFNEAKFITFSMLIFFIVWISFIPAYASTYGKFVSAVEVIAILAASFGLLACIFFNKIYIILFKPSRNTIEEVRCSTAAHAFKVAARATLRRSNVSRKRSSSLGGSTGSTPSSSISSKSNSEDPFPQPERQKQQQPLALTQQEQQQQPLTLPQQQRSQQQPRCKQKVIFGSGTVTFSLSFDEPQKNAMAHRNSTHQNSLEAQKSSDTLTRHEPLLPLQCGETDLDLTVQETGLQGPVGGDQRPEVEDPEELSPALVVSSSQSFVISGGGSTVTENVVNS
- measurement description: cell-based or functional assay
property: EC50 (µM), CaSR in vitro assay (IP1 production)

binder	recorded number
XXXXXXX (N-terminal acetyl; C-terminal amide; all seven residues D-amino acids; D-Cys 1 linked by a disulfide bond to an L-Cys residue) [Ac-c(C)arrrar-NH2]	10
CXRXRXR (N-terminal acetyl; C-terminal amide; L-Cys 1, D-Ala 2, L-Arg 3, D-Arg 4, L-Arg 5, D-Ala 6, L-Arg 7) [Ac-CaRrRaR-NH2]	5.6
XXXXXXXX (N-terminal acetylated beta-alanine; C-terminal amide; Cys and Arg residues are D-amino acids) [Ac-bAla-crrrrrr-NH2]	1
XXXXXXXXXXXX (N-terminal acetyl; C-terminal amide; printed in lower case (D-amino acids; glycine is achiral)) [Ac-cygrkkrrqrrr-NH2]	2

Values were extracted from patent US20130150297A1.
